Sourced from ChEMBL document CHEMBL1201862

- Measured on: Induced myeloid leukemia cell differentiation protein Mcl-1 (Homo sapiens)
- Sequence (Q07820 whole entry): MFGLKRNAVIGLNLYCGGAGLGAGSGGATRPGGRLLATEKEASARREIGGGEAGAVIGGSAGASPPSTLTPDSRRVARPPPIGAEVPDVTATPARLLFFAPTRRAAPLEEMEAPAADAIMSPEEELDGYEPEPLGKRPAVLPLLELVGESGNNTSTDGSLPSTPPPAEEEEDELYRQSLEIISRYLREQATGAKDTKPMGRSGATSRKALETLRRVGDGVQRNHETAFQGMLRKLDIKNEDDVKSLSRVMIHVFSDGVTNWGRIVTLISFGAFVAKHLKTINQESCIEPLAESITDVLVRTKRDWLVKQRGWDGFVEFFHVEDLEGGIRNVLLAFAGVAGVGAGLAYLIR
- Type: functional
The source made the active and inactive calls.
This listing pairs compounds with measured IC50.
Measurement type: IC50

Compound | Measured
COc1cc(/C=C2\SC(=O)N(Cc3ccc(F)cc3)C2=O)cc([N+](=O)[O-])c1O | 7.65 µM (active)
C/C(=N\Nc1ccc(C(=O)O)cc1)c1ccc2c(c1)Nc1ccccc1S2 | 36 µM (active)
CC1=Nc2cccc3cccc(c23)N1 | 3.71 µM (active)
COc1ccccc1C(=O)N=Nc1c(O)[nH]c2ccc([N+](=O)[O-])cc12 | 2.92 µM (active)
CCCCCc1nc2c(O)nc3ccccc3c2o1 | 28.3 µM (not active)
Cc1ccc(C(=O)Nc2ccc(N3CCCC3)cc2)c(C)c1 | 7.06 µM (not active)
O=C1OCC2OC(O)C(O)C(O)C2OC(=O)c2cc(O)c(O)c(O)c2-c2c(O)c(O)c3oc(=O)c4c(c(O)c(O)c5oc(=O)c2c3c54)-c2c1cc(O)c(O)c2O (stereo not drawn) | 1.56 µM (active)
Cc1cccc(NC(=O)CN2C(=O)N/C(=C/c3ccc(C)o3)C2=O)c1 | < 0.4 µM (not active)
